target: GST-Bfl-1 (Homo sapiens, UniProt Q16548); construct: lacking their C-terminal transmembrane domains (about the last 20 amino acids) (“ΔTM”); made in house; host or cells: XL-1 Blue E. coli, pGEX 4T-1; experiment: Bfl-1/FITC-Bid BH3 competitive fluorescence polarization assay; format: binding; details: primary HTS hits, MLSCN library (PubChem SIDs), Table 5B
Sequence (Q16548 1-155 limits assumed): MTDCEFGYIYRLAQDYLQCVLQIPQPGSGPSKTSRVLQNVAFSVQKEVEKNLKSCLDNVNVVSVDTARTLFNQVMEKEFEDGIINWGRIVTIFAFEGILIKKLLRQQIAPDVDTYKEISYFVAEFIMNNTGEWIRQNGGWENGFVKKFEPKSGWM
Value kind: FRatio
Hey, just send me the number, nothing else.

Illustrative cases are given below, each with its answer.
[
  {
    "Compound": "Cc1ccc(-n2c(SCc3cc(=O)n4ccsc4n3)nnc2-c2cccnc2)c(C)c1",
    "Result number": 0.96
  },
  {
    "Compound": "CCOc1ccc(C(=O)OCC(=O)NCc2ccco2)cc1OCC",
    "Result number": 1
  },
  {
    "Compound": "Cc1cc[n+]2c3c(cccc13)CCC2",
    "Result number": 0.76
  },
  {
    "Compound": "Cc1c(C(=O)OCC2CCCO2)[nH]c2c1C(=O)CC(c1ccco1)C2 (stereo not drawn)",
    "Result number": 0.79
  }
]

Now for a further compound.
Quote GST-Bfl-1 (Homo sapiens, UniProt Q16548) FRatio for entry O=c1nc2s/c(=C\c3ccco3)c(=O)n2nc1Cc1ccc(F)cc1 . 0.32
